Tested on: UISO
Experiment: qHTS assay to identify novel small-molecules to repurpose for Merkel cell carcinoma treatment (AID 1296009); also: nearly all actives have a fitted effect of over 60% in size
Details: MCC and control cell lines, CellTiter-Glo viability, 72 h; series mostly up to 46 µM
Results filed as inconclusive are left out. Active and inactive are the calls of the source. Calls follow the shape of the dose curve; as a rule, active = well fitted inhibition curve with a large enough effect; inconclusive = small, poorly fitted or top-dose-only effect; inactive = flat fitted curve, though single readings scatter.
ASSAY ENDPOINT: outcome

Use the examples below as a reference point.
INSERT INTO results (compound, assay_endpoint, value_measured) VALUES
  ('C1=C2CCCN[C@H]2[C@@H]2C[C@H]1[C@@H]1CCCCN1C2', 'outcome', 'inactive'),
  ('OCCCBr', 'outcome', 'inactive'),
  ('CC(=CCCC1=CCC(C2=CC(=O)OC2O)OC1O)CCC1=C(C)CCCC1(C)C (stereo not given)', 'outcome', 'inactive'),
  ('O=S(=O)(O)C(F)(F)C(F)(F)C(F)(F)C(F)(F)C(F)(F)C(F)(F)C(F)(F)C(F)(F)F', 'outcome', 'inactive');

With those in mind, consider the next compound.
Exercise: Item "CSCC[C@@H](NC(=O)[C@@H](Cc1ccccc1)NC(=O)CNC(=O)CNC(=O)[C@@H](N)Cc1ccc(O)cc1)C(=O)O" has what recorded outcome?
Key: inactive
